// provenance: patent US20110015225A1

# test.system: MCH receptor (SLC-1) (UniProt Q99705)
# assay.protocol: MCH receptor antagonistic activity using GTPγS binding assay
# Format: biochemical, human
# test.settings: [35S]-GTPγS binding, membrane fractions of SLC-1 expression CHO cells, 3×10^−10 M MCH, 25° C. 1 hr; read-out: Inhibitory Activity (IC50 value: nM)
measurement.label: IC50 (nM)

Look over these answered cases.
Cc1c(NC(=O)c2ccc(OCCC3CC3)cc2)ccc2cc(CNC3CC[S+]([O-])CC3)cnc12 (stereo not shown) [Ex. 22]
1.8
Cc1c(NC(=O)c2ccc(OCC3CC3)cc2)ccc2cc(CNC3CC[S+]([O-])CC3)cnc12 (stereo not shown) [Ex. 33]
4.1
Cc1c(NC(=O)c2ccc(OCC3CC3)cc2)ccc2cc(C(C)NCCCS(C)(=O)=O)cnc12 (stereo not shown) [Ex. 3]
2.2
Cc1c(NC(=O)c2ccc(OCC3CC3)cc2F)ccc2cc(CNC3CC[S+]([O-])CC3)cnc12 (stereo not shown) [Ex. 35]
5.6
CC1=C(CNC2CCS(=O)(=O)CC2)CCc2cc(NC(=O)c3ccc(OCC4CC4)cc3)ccc21 [Ex. 47]
6.7
Cc1c(NC(=O)c2ccc(OCC3CC3)cc2)ccc2cc(CNCCCNS(C)(=O)=O)cnc12 [Ex. 13]
2.8
Cc1c(NC(=O)c2ccc(OCCC3CC3)cc2F)ccc2cc(CNC3CC[S+]([O-])CC3)cnc12 (stereo not shown) [Ex. 24]
1.5
Cc1c(NC(=O)c2ccc(OCC3CC3)cc2F)ccc2cc(CNC3CCS(=O)(=O)CC3)cnc12 [Ex. 34]
2.7

I. Cc1c(NC(=O)c2ccc(OCC3CC3)cc2)ccc2cc(CNCC3(O)CCS(=O)(=O)CC3)cnc12 [Ex. 15]
II. Cc1c(NC(=O)c2ccc(OCC3CC3)cc2)ccc2cc([C@@H](C)NC3CC[S+]([O-])CC3)cnc12 (stereo partly shown) [Ex. 30]
Lower value of IC50 belongs to which: I or II ? State the label of the item chosen.
II

P. Cc1c(NC(=O)c2ccc(OCC3CC3)cc2)ccc2cc(CNCC(C)(C)CS(C)(=O)=O)cnc12 [Ex. 4]
Q. O=C(Nc1ccc2cc(CNC3CCS(=O)(=O)CC3)ccc2c1)c1ccc(OCC2CC2)cc1 [Ex. 46]
Thinking about recorded IC50 values, which is higher, P or Q ? State the label of the item chosen.
Q
(Q: 4.4 nM, P: 2.8 nM)

A. Cc1c(NC(=O)c2ccc(C#CC3CC3)cc2)ccc2cc(CNC3CCS(=O)(=O)CC3)cnc12 [Ex. 41]
B. Cc1c(NC(=O)c2ccc(OCC3CC3)cc2)ccc2cc(CNC3CC[S+]([O-])CC3)cnc12 (stereo not shown) [Ex. 32]
Lower value of IC50 belongs to which: A or B ? State the label of the item chosen.
A
(A: 2.2 nM, B: 6.5 nM)

1. Cc1c(NC(=O)c2ccc(OCC3CC3)cc2)ccc2cc(CNCCCCS(C)(=O)=O)cnc12 [Ex. 27]
2. Cc1c(NC(=O)c2ccc(/C=C/C3CC3)cc2)ccc2cc(CNC3CCS(=O)(=O)CC3)cnc12 [Ex. 45]
3. Cc1c(NC(=O)c2ccc(OCC3CC3)cc2F)ccc2cc(CNC3CC[S+]([O-])CC3)cnc12 (stereo not shown) [Ex. 36]
In this exercise, place the 3 molecules in ascending sequence of their recorded IC50. Return the labels ranked in the requested order, please.
1, 3, 2

a. Cc1c(NC(=O)c2ccc(C#CC3CC3)cc2)ccc2cc(CNCCCS(C)(=O)=O)cnc12 [Ex. 44]
b. Cc1c(NC(=O)c2ccc(OCC3CC3)cc2)ccc2cc(C(C)NC3CCS(=O)(=O)CC3)cnc12 (stereo not shown) [Ex. 28]
Thinking about recorded IC50 values, which is higher, a or b ? State the label of the item chosen.
b

I. Cc1c(NC(=O)c2ccc(OCC3CC3)cc2)ccc2cc(CNCC3CCN(S(C)(=O)=O)CC3)cnc12 [Ex. 14]
II. Cc1c(NC(=O)c2ccc(OCCC3CC3)cc2F)ccc2cc(CNC3CC[S+]([O-])CC3)cnc12 (stereo not shown) [Ex. 25]
Lower value of IC50 belongs to which: I or II ? State the label of the item chosen.
II
